- test_target: human M2 receptor (Homo sapiens, UniProt P08172)
- Sequence (P08172 1-466): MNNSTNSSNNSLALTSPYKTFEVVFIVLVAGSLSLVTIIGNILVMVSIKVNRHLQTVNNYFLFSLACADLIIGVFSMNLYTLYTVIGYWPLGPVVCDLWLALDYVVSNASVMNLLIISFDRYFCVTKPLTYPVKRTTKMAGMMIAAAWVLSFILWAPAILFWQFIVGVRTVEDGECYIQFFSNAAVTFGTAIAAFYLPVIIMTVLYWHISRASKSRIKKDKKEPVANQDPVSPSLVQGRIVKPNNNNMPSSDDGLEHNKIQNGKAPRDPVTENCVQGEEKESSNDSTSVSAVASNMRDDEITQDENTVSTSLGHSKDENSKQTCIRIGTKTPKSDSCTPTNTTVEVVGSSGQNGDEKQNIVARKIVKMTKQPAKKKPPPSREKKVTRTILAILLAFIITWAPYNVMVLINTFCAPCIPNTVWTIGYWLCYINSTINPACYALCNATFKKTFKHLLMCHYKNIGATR
- run_conditions: Receptor activity EC50, allosteric potency at EC20 acetylcholine; M2-GIRK1/4 reporter cells; in some cases mean of two or more determinations
parameter: EC50 (nM)
The reply should be a number in nM, with the unit left off.

// returns reported EC50 for input O=C(N[C@@H](C1CC1)C(F)(F)F)c1cn(-c2c(F)cc(F)cc2F)c2nc(N3CCC(O)(CO)CC3)ccc2c1=O
30

// returns reported EC50 for input CC[C@@H](NC(=O)c1cn(-c2c(Cl)cc(F)cc2Cl)c2nc(N3C[C@@H](O)[C@H](O)C3)ccc2c1=O)C(F)(F)F
73

// returns reported EC50 for input CC(C)(NC(=O)c1cn(-c2c(F)cc(F)cc2F)c2nc(N3CCNC3=O)ccc2c1=O)C(F)F
36

// returns reported EC50 for input O=C(NC12CC(F)(C1)C2)c1cn(-c2c(F)cc(F)cc2Cl)c2nc(N3C[C@@H](O)CC3=O)ccc2c1=O
32

// returns reported EC50 for input O=C(N[C@@H](C1CC1)C(F)(F)F)c1cn(-c2c(F)cc(F)cc2F)c2nc(N3CC(CO)OC3=O)ccc2c1=O (mixture of isomers)
81

// returns reported EC50 for input CC(C)C(NC(=O)c1cn(-c2c(F)cc(F)cc2F)c2nc(N3CCNC3=O)ccc2c1=O)C(F)(F)F (racemic) [Example 536]
16

// returns reported EC50 for input CC1C(=O)N(c2ccc3c(=O)c(C(=O)N[C@@H](C4CC4)C(F)(F)F)cn(-c4c(F)cc(F)cc4F)c3n2)CC1O (stereo partly shown)
14

// returns reported EC50 for input O=C(N[C@@H](C1CC1)C(F)(F)F)c1cn(-c2c(F)cc(F)cc2F)c2nc(N3CCOC(CO)C3)ccc2c1=O (single isomer, unassigned) [Example 465]
76

// returns reported EC50 for input CCC(NC(=O)c1cn(-c2c(F)cc(F)cc2F)c2nc(N3C[C@@H](O)CC3=O)ccc2c1=O)C(C)C (single isomer, unassigned) [Example 486]
4

// returns reported EC50 for input CC(C)(CC(F)(F)F)NC(=O)c1cn(-c2c(F)cc(F)cc2F)c2nc(N3CC(O)C4(CC4)C3)ccc2c1=O (racemic) [Example 569]
49

// returns reported EC50 for input CC(C)C(C)NC(=O)c1cn(-c2c(F)cc(F)cc2F)c2nc(N3C[C@@H](O)CC3=O)ccc2c1=O (stereo in doubt)
13

// returns reported EC50 for input CC(C)C(NC(=O)c1cn(-c2c(F)cc(F)cc2F)c2nc(N3C[C@@H](O)CC3=O)ccc2c1=O)C(F)(F)F (single isomer, unassigned) [Example 527]
5

// returns reported EC50 for input CC(C)(CC(F)(F)F)NC(=O)c1cn(-c2c(F)cc(F)cc2F)c2nc(N3C[C@@H](O)[C@@H](O)C3)ccc2c1=O
29

Value source: patent US20190367516A1
